target: EGFR L858R/C797S (Homo sapiens, UniProt P00533, C797S/L858R); assay: Biochemical EGFR kinase inhibition assay (Lance Ultra TR-FRET), double mutant L858R/C797S; conditions: IC50 L858R/C797S (nM), 100 μM ATP
Sequence (P00533 25-1210 C797S/L858R): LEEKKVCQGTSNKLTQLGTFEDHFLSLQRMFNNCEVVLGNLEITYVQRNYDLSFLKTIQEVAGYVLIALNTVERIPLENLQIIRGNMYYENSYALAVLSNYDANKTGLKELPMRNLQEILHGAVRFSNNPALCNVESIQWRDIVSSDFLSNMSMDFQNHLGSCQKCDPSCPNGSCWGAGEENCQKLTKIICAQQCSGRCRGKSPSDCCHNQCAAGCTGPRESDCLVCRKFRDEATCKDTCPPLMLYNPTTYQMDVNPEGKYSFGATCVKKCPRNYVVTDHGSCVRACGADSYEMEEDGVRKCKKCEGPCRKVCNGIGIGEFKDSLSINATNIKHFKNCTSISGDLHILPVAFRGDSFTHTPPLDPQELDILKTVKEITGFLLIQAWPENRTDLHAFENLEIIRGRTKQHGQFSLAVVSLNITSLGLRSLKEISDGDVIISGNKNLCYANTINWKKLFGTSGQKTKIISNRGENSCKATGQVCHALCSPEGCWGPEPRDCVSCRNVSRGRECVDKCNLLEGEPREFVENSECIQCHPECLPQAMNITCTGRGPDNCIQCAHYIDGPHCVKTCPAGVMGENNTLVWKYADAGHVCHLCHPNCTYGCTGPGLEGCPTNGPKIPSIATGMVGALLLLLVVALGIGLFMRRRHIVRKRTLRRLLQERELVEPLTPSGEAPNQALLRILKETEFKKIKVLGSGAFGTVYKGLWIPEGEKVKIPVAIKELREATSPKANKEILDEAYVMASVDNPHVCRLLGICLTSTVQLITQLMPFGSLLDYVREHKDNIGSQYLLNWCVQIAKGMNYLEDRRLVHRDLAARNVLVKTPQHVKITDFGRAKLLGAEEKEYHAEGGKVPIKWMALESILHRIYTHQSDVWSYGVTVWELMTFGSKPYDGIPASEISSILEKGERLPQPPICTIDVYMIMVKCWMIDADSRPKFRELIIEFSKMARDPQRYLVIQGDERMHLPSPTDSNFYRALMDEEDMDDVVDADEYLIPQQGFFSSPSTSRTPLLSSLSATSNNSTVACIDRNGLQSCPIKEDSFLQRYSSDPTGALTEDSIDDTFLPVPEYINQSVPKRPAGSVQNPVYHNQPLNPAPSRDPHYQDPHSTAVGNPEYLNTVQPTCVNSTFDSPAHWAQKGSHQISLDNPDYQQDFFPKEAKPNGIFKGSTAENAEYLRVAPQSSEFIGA
Entries and their log10 IC50 values follow.
quantity_name: log10 IC50 (log10 of the value in nM)

{"compound": "CC1(CO)CCN(c2cc(Nc3ccnc(-c4cnn(S(=O)(=O)C5CC5)c4)n3)ncc2C#CC2CC2)CC1 [Example 250]", "quantity_name": "log10 IC50", "assay_result": 1.87}
{"compound": "CC(C)Nc1cc(Nc2ccnc(-c3cnn(S(=O)(=O)C4CC4)c3)n2)ncc1C#CCCCCNC(=O)N1CCOCC1 [Example 209]", "quantity_name": "log10 IC50", "assay_result": 2.05}
{"compound": "O=S(=O)(C1CC1)n1cc(-c2nccc(Nc3cc(NC[C@H]4CC[C@@H](O)C4)c(C#Cc4cnn(C(F)F)c4)cn3)n2)cn1 [Example 306]", "quantity_name": "log10 IC50", "assay_result": 0.83}
{"compound": "Cn1cc(C#Cc2cnc(Nc3ccnc(-c4cnn(S(=O)(=O)C5CC5)c4)n3)cc2N2CCC(CO)C2)cn1 (stereo not shown) [Example 33]", "quantity_name": "log10 IC50", "assay_result": 2.18}
{"compound": "Cn1cc(C#Cc2cnc(Nc3ccnc(-c4cnn(S(=O)(=O)C5CC5)c4)n3)cc2N2CCC(C(F)(F)F)CC2)cn1 [Example 65]", "quantity_name": "log10 IC50", "assay_result": 2.78}
{"compound": "CC1(CO)CCN(c2cc(Nc3ccnc(-c4cnn(S(=O)(=O)C5CC5)c4)n3)ncc2C#Cc2cnn(C(F)F)c2)CC1 [Example 305]", "quantity_name": "log10 IC50", "assay_result": 0.73}
{"compound": "CN(C)CC1(O)CCN(c2cc(Nc3ccnc(-c4cnn(S(=O)(=O)C5CC5)c4)n3)ncc2C#Cc2cnn(C3CC3)c2)CC1 [Example 316]", "quantity_name": "log10 IC50", "assay_result": 1.86}

====

Target: EGFR L858R/C797S (Homo sapiens, UniProt P00533, C797S/L858R)
Experiment: Biochemical EGFR kinase inhibition assay (Lance Ultra TR-FRET), double mutant L858R/C797S
Conditions: IC50 L858R/C797S (nM), 100 μM ATP
Experimental: Biochemical EGFR kinase assays were conducted using Lance Ultra time-resolved fluorescence resonance energy transfer (TR-FRET) technology from Perkin-Elmer. […] Each kinase reactions were incubated at room temperature for 1 hour and then stopped by the addition of 4 μL of stop solution (10 mM EDTA). […] After 60 minutes incubation at room temperature the LANCE signal was measured on an EnVision Multilabel Reader (Perkin-Elmer). […]
Decide using IC50 alone. Strictly below 30 nM: 1.0. Equal to or above 30 nM: 0.0.

{"molecule": "Cn1cc(C#Cc2cnc(Nc3ccnc(-c4cnn(S(=O)(=O)C5CC5)c4)n3)cc2N2CCCC(O)CC2)cn1 (stereo not shown)", "category": 0.0}
{"molecule": "Cn1cc(C#Cc2cnc(Nc3ccnc(-c4cnn(S(=O)(=O)C5CC5)c4)n3)cc2N2CCCC(CO)CC2)cn1 (stereo not shown)", "category": 0.0}
{"molecule": "Cn1cc(C#Cc2cnc(Nc3ccnc(-c4cnn(S(=O)(=O)C5CC5)c4)n3)cc2N2CCCC(F)C2)cn1 (stereo not shown)", "category": 0.0}
{"molecule": "O=S(=O)(C1CC1)n1cc(-c2nccc(Nc3cc(N[C@H]4CC[C@@H](O)CC4)c(C#CC4CCOCC4)cn3)n2)cn1", "category": 1.0}
{"molecule": "CN1CCN(Cc2ccc(C#Cc3cnc(Nc4ccnc(-c5cnn(S(=O)(=O)C6CC6)c5)n4)cc3N3CCC4(CCO4)CC3)cc2)CC1", "category": 1.0}
{"molecule": "Cc1nn(S(=O)(=O)N(C)C)cc1-c1nccc(Nc2cc(N3CCC(C)(CO)CC3)c(C#Cc3cnn(C(F)(F)F)c3)cn2)n1", "category": 0.0}
{"molecule": "CC(=O)N1CCC(n2cc(C#Cc3cnc(Nc4ccnc(-c5cnn(S(=O)(=O)C6CC6)c5)n4)cc3N3CCCC(O)C3)cn2)CC1 (stereo not shown)", "category": 1.0}
{"molecule": "Cn1cc(C#Cc2cnc(Nc3ccnc(-c4cnn(S(=O)(=O)C5CC5)c4)n3)cc2N2CCC(NCC(F)F)CC2)cn1", "category": 1.0}
{"molecule": "CC1(CO)CCN(c2cc(Nc3ccnc(-c4cnn(S(=O)(=O)C5CC5)c4)n3)ncc2C#CCC2(O)COC2)CC1", "category": 1.0}
{"molecule": "C[C@]1(O)CC[C@@H](Nc2cc(Nc3ccnc(-c4cnn(S(=O)(=O)C5CC5)c4)n3)ncc2C#Cc2cnn(CC(F)(F)F)c2)CC1", "category": 0.0}
{"molecule": "O=S(=O)(C1CC1)n1cc(-c2nccc(Nc3cc(N[C@H]4CC[C@@H](O)CC4)c(C#Cc4ccc(CN5CCOCC5)cn4)cn3)n2)cn1", "category": 0.0}
{"molecule": "CN(C)Cc1ccc(C#Cc2cnc(Nc3ccnc(-c4cnn(S(=O)(=O)C5CC5)c4)n3)cc2N2CCC(C)(CO)CC2)cn1", "category": 1.0}
{"molecule": "Cn1cc(C#Cc2cnc(Nc3ccnc(-c4cnn(S(=O)(=O)C5CC5)c4)n3)cc2N[C@@H]2CCC[C@H](O)C2)cn1", "category": 0.0}

====

Entries and their IC50 values follow.
target: EGFR L858R/T790M/C797S (Homo sapiens, UniProt P00533, C797S/L858R/T790M); assay: Biochemical EGFR kinase inhibition assay (Lance Ultra TR-FRET), triple mutant L858R/T790M/C797S; conditions: IC50 L858R/T790M/C797S (nM), 100 μM ATP
Sequence (P00533 25-1210 T790M/C797S/L858R): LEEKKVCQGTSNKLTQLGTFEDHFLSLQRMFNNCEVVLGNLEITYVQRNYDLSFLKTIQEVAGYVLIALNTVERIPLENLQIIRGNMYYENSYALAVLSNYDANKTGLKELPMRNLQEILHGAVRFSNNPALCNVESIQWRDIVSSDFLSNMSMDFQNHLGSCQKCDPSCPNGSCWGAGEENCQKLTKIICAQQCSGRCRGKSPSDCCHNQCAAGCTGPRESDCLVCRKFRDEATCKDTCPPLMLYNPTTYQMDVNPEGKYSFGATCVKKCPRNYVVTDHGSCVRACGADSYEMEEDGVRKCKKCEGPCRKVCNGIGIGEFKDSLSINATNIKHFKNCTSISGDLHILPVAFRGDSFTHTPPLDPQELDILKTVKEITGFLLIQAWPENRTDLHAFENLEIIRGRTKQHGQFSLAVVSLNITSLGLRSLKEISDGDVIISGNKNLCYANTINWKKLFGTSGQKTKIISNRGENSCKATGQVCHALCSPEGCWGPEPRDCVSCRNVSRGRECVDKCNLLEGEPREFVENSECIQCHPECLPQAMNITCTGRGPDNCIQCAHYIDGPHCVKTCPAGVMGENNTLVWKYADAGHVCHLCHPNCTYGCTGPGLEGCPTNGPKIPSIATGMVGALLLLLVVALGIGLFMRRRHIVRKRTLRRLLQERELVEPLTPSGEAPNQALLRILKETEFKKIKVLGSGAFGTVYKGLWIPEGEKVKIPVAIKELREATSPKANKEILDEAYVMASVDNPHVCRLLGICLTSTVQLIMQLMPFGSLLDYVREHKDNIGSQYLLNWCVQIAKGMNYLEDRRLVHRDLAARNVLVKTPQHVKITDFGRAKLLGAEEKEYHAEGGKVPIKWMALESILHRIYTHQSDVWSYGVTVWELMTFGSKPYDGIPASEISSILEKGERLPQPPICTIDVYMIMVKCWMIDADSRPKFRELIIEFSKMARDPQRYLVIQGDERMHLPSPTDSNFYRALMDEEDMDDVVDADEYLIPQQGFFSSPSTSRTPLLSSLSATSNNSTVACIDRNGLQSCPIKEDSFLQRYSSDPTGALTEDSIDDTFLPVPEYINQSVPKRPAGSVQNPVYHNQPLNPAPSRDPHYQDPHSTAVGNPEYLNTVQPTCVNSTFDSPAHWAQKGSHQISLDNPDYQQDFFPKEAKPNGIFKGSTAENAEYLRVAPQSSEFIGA

{"smiles_repr": "CC(=O)N1CCC(n2cc(C#Cc3cnc(Nc4ccnc(-c5cnn(S(=O)(=O)C6CC6)c5)n4)cc3N[C@H]3CC[C@@H](O)CC3)cn2)CC1", "unit": "nM", "IC50": 1.4}
{"smiles_repr": "COCCNC1CCN(c2cc(Nc3ccnc(-c4cnn(S(=O)(=O)C5CC5)c4)n3)ncc2C#Cc2cnn(C)c2)CC1", "unit": "nM", "IC50": 4.2}
{"smiles_repr": "CN(C)C(=O)c1ccc(C#Cc2cnc(Nc3ccnc(-c4cnn(S(=O)(=O)C5CC5)c4)n3)cc2N2CCC(C)(CO)CC2)cc1", "unit": "nM", "IC50": 1.3}

====

Entries and their IC50 values follow.
molecular target: EGFR Del19/C797S (Homo sapiens, UniProt P00533, C797S/DEL746-750); test: Biochemical EGFR kinase inhibition assay (Lance Ultra TR-FRET), double mutant del19/C797S; conditions: IC50 Del19/C797S (nM), 100 μM ATP
Sequence (P00533 with tags, fused parts or gaps DEL746-750/C797S): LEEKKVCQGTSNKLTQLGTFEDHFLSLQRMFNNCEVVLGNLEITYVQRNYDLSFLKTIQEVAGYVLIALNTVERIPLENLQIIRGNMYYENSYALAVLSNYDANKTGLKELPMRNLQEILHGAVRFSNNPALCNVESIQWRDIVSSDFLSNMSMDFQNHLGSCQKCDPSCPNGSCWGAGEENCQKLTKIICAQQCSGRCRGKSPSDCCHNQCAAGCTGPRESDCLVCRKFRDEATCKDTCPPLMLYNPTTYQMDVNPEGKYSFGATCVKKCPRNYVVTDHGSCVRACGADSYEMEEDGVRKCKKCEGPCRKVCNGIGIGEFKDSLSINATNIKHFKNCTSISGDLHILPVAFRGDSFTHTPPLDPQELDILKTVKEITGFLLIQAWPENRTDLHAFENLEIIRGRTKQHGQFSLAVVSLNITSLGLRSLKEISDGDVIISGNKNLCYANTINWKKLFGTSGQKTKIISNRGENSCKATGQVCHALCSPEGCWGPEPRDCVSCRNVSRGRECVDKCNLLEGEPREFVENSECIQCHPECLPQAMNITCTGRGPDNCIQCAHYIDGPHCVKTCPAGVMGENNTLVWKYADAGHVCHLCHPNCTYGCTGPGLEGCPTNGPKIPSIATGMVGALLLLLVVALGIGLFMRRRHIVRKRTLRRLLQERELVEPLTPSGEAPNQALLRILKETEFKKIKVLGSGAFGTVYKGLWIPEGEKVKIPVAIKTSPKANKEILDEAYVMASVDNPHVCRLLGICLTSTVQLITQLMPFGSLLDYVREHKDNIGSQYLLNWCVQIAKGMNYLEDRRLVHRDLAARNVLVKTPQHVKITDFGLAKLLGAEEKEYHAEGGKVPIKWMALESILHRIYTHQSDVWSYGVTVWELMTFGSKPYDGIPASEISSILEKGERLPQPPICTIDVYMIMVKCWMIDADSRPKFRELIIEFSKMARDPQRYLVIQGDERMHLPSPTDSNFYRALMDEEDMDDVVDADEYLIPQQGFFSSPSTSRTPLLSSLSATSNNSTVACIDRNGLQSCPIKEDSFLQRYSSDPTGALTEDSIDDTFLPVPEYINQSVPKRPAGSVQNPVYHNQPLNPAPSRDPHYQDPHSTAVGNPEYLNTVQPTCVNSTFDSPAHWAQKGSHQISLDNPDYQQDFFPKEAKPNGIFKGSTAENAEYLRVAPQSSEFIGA

{"compound": "CN(C)CCCn1cc(C#Cc2cnc(Nc3ccnc(-c4cnn(S(=O)(=O)C5CC5)c4)n3)cc2N2CCC(NCCF)CC2)cn1", "IC50": "0.7 nM"}
{"compound": "Cc1nc(C#Cc2cnc(Nc3ccnc(-c4cnn(S(=O)(=O)C5CC5)c4)n3)cc2N2CCC(O)CC2)cs1", "IC50": "32.3 nM"}
{"compound": "O=C(N1CCC(C#Cc2cnc(Nc3ccnc(-c4cnn(S(=O)(=O)C5CC5)c4)n3)cc2NCC2CCC(CO)CC2)C1)C(F)(F)F (stereo not shown)", "IC50": "59.8 nM"}
{"compound": "CC(C)(O)C1CN(c2cc(Nc3ccnc(-c4cnn(S(=O)(=O)C5CC5)c4)n3)ncc2C#Cc2cnn(CCF)c2)C1", "IC50": "25.5 nM"}

====

target: EGFR L858R/T790M/C797S (Homo sapiens, UniProt P00533, C797S/L858R/T790M); experiment: Biochemical EGFR kinase inhibition assay (Lance Ultra TR-FRET), triple mutant L858R/T790M/C797S; conditions: IC50 L858R/T790M/C797S (nM), 100 μM ATP
Note that class boundaries on IC50 are class A: < 0.5 nM; class B: ≥ 0.5 nM and < 4 nM; class C: ≥ 4 nM

{"molecule": "CC1(CO)CCN(c2cc(Nc3ccnc(-c4cnn(S(=O)(=O)C5CC5)c4)n3)ncc2C#Cc2ccc(C(=O)N3CCC(O)CC3)cc2)CC1", "category": "class A"}
{"molecule": "CC1(CO)CCN(c2cc(Nc3ccnc(-c4cnn(S(=O)(=O)C5CC5)c4)n3)ncc2C#Cc2cc(C(F)(F)F)n[nH]2)CC1", "category": "class C"}
{"molecule": "COC1(C)CCN(c2cc(Nc3ccnc(-c4cnn(S(=O)(=O)C5CC5)c4)n3)ncc2C#Cc2cccnc2)CC1", "category": "class C"}
{"molecule": "O=S(=O)(C1CC1)n1cc(-c2nccc(Nc3cc(N[C@@H]4CCC[C@H](O)C4)c(C#Cc4ccc(CN5CCOCC5)cc4)cn3)n2)cn1", "category": "class C"}
{"molecule": "Cn1cnc(C#Cc2cnc(Nc3ccnc(-c4cnn(S(=O)(=O)C5CC5)c4)n3)cc2N[C@@H]2CC[C@H](O)C2)c1", "category": "class B"}
{"molecule": "CN(C)C[C@H]1CC[C@@H](Nc2cc(Nc3ccnc(-c4cnn(S(=O)(=O)C5CC5)c4)n3)ncc2C#Cc2cnn(C)c2)CC1", "category": "class A"}
{"molecule": "Cn1cc(C#Cc2cnc(Nc3ccnc(-c4cnn(S(=O)(=O)C5CC5)c4)n3)cc2N2CCC(CO)CC2)cn1", "category": "class B"}
{"molecule": "O=S(=O)(C1CC1)n1cc(-c2nccc(Nc3cc(N[C@H]4CC[C@@H](O)CC4)c(C#CC4COC4)cn3)n2)cn1", "category": "class A"}
{"molecule": "CN1CCC(C#Cc2cnc(Nc3ccnc(-c4cnn(S(=O)(=O)C5CC5)c4)n3)cc2N2CCC(C)(CO)CC2)C1 (stereo not shown)", "category": "class A"}
{"molecule": "O=S(=O)(C1CC1)n1cc(-c2nccc(Nc3cc(N4CCC(O)CC4)c(C#Cc4ccc(N5CCOCC5)nc4)cn3)n2)cn1", "category": "class C"}
